# Activity per entry
- assayed.target: Protein cereblon/Bromodomain-containing protein 4 (Homo sapiens) (UniProt O60885+Q96SW2)
- Sequence (Q96SW2 whole entry, looked up, other chains not shown): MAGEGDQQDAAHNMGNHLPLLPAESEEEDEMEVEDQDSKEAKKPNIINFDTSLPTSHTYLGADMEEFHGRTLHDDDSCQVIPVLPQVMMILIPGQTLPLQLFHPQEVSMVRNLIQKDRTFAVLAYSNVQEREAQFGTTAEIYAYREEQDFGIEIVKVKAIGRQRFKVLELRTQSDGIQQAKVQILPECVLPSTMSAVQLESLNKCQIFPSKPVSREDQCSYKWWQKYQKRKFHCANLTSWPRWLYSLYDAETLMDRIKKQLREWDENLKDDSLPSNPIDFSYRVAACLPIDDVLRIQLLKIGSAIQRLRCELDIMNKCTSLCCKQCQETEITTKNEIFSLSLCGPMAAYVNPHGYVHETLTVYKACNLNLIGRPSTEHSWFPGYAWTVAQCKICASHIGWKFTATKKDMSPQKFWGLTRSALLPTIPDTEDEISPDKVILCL
- experiment.summary: PROTAC activity at CRBN/BRD4 (unknown origin) assessed as BRD4 degradation in presence of N-((2-(2,6-dioxopiperidin-3-yl)-1,3-dioxoisoindolin-4-yl)methyl)-3,4- dihydroxy benzamide (CRB-N8046) by Western blot analysis
- Type: protein assay
- Design: concentration or dose not given beside the values
Unit % implied. Number only.

Use the examples below as a reference point.
>>> val("COc1ccc2c(c1)C(c1ccc(Cl)cc1)=N[C@@H](CC(=O)NCCNC(=O)/C=C/c1ccc(B(O)O)cc1)c1nnc(C)n1-2")
30
>>> val("CCNC(=O)C[C@@H]1N=C(c2ccc(Cl)cc2)c2cc(OCCCCC(=O)Nc3cccc(B(O)O)c3)ccc2-n2c(C)nnc21")
30

Query :: Give a short answer stating reported Activity for `COc1ccc2c(c1)C(c1ccc(Cl)cc1)=N[C@@H](CC(=O)NCc1cccc(B(O)O)c1)c1nnc(C)n1-2` .
Result :: 30

Query :: Output measured Activity for this item: `COc1ccc2c(c1)C(c1ccc(Cl)cc1)=N[C@@H](CC(=O)NCCCNC(=O)c1cccc(B(O)O)c1)c1nnc(C)n1-2`
Result :: 30

Query :: Name the recorded Activity of the compound listed here: `COc1ccc2c(c1)C(c1ccc(Cl)cc1)=N[C@@H](CC(=O)NCCCCCNC(=O)c1cccc(B(O)O)c1)c1nnc(C)n1-2`
Result :: 30
